Tested on: THP-1
measurement_description: THP-1 cell loss relative to DMSO control; higher = more host cell loss (toxicity); extreme values may be limits of the assay
experimental_setup: 10 µM; 4 days; infection: M. tuberculosis H37Rv
measured_property: THP-1 cell loss (%)
Use % as the unit, but write only the number.

// worked examples, THP-1 cell loss included
- compound: "CS(=O)(=O)c1cccc(CNc2nc(Nc3ccc4c(c3)CCC(=O)N4)ncc2C(F)(F)F)c1"
  endpoint_value: 56.3
- compound: "C=CCn1c(=O)c2cnc(Nc3ccc(N4CCN(C)CC4)cc3)nc2n1-c1cccc(C(C)(C)O)n1"
  endpoint_value: 37
- compound: "CC(=O)c1ccc(N2CCOCC2)cc1O"
  endpoint_value: 16.5

Q: What value of THP-1 cell loss has been reported for the following compound? Cc1c(NC(=O)OC[C@@H]2COCCN2)cn2ncnc(Nc3ccc4c(cnn4Cc4cccc(F)c4)c3)c12
Ans: 16.7

Q: Ok, now O=C(O)c1cc(N(Cc2ccccc2O)Cc2cc(O)ccc2O)ccc1O [Lavendustin A]
Ans: 4.39
